Assignment: determine reported Biodistribution Stomach for the given compounds.
- assay_text: Biodistribution studies incl. blocking experiments
- Type: in vivo
- study_conditions: healthy BALB/c mice, 30 min p.i.
- Method: For biodistribution studies 6 week old female BALB/c mice (n=3) were injected with 0.1 nmol (100 μL, approx. 1 MBq) of labelled compound via the lateral tail vein and sacrificed after 10, 30, or 60 min by cervical dislocation. The mice were dissected, blood and organs (spleen, pancreas, stomach, intestine, liver, kidney, heart, lung, muscle, and bone) were weighed, and their activity measured in a γ-counter. […]
Reply with the number and its unit after it.

Query :: Provide only the value of recorded Biodistribution Stomach for O=C(O)CN1CCN(CC(=O)O)CCN([C@H](CCC(=O)NCCCC(=O)NC(COCc2cn(CCOCCOCCO[C@@H]3O[C@H](CO)[C@H](O)[C@H](O)[C@H]3O)nn2)(COCc2cn(CCOCCOCCO[C@@H]3O[C@H](CO)[C@H](O)[C@H](O)[C@H]3O)nn2)COCc2cn(CCOCCOCCO[C@@H]3O[C@H](CO)[C@H](O)[C@H](O)[C@H]3O)nn2)C(=O)O)CC1 [[^68Ga]Ga-NODAGA-TriGalactan, metal not drawn]
Result :: 1.05 ± 0.08 % ID/g

Query :: Provide only the value of recorded Biodistribution Stomach for CC(=O)N[C@H]1[C@H](OCCOCCOCCn2cc(CNC(=O)CCP(=O)([O-])CN3CCN(CP(=O)([O-])CCC(=O)NCc4cn(CCOCCOCCO[C@@H]5O[C@H](CO)[C@H](O)[C@H](O)[C@H]5NC(C)=O)nn4)CCN(CP(=O)([O-])CCC(=O)NCc4cn(CCOCCOCCO[C@@H]5O[C@H](CO)[C@H](O)[C@H](O)[C@H]5NC(C)=O)nn4)CC3)nn2)O[C@H](CO)[C@H](O)[C@@H]1O.[68Ga+3] [[^68Ga]Ga-TRAP-GalNAc]
Result :: 1.60 ± 0.56 % ID/g

Query :: Provide only the value of recorded Biodistribution Stomach for O=C(CCP(=O)([O-])CN1CCN(CP(=O)([O-])CCC(=O)NCc2cn(CCOCCOCCO[C@@H]3O[C@H](CO)[C@@H](O)[C@H](O)[C@H]3O)nn2)CCN(CP(=O)([O-])CCC(=O)NCc2cn(CCOCCOCCO[C@@H]3O[C@H](CO)[C@@H](O)[C@H](O)[C@H]3O)nn2)CC1)NCc1cn(CCOCCOCCO[C@@H]2O[C@H](CO)[C@@H](O)[C@H](O)[C@H]2O)nn1.[68Ga+3] [[^68Ga]Ga-TRAP-Gluco, reference compound]
Result :: 0.61 ± 0.19 % ID/g

Query :: Provide only the value of recorded Biodistribution Stomach for O=C(CCP(=O)([O-])CN1CCN(CP(=O)([O-])CCC(=O)NCc2cn([C@@H]3O[C@H](CO)[C@H](O)[C@H](O)[C@H]3O)nn2)CCN(CP(=O)([O-])CCC(=O)NCc2cn([C@@H]3O[C@H](CO)[C@H](O)[C@H](O)[C@H]3O)nn2)CC1)NCc1cn([C@@H]2O[C@H](CO)[C@H](O)[C@H](O)[C@H]2O)nn1.[68Ga+3] [[^68Ga]Ga-Galacto-TRAP]
Result :: 0.53 ± 0.05 % ID/g

====

- assay_text: Biodistribution studies incl. blocking experiments
- Format: in vivo
- study_conditions: healthy BALB/c mice, 10 min p.i.
attribute_measured: Biodistribution Pancreas
Reply with the number and its unit after it.

Query :: Provide only the value of recorded Biodistribution Pancreas for O=C(O)CN1CCN(CC(=O)O)CCN([C@H](CCC(=O)NCCCC(=O)NC(COCc2cn(CCOCCOCCO[C@@H]3O[C@H](CO)[C@H](O)[C@H](O)[C@H]3O)nn2)(COCc2cn(CCOCCOCCO[C@@H]3O[C@H](CO)[C@H](O)[C@H](O)[C@H]3O)nn2)COCc2cn(CCOCCOCCO[C@@H]3O[C@H](CO)[C@H](O)[C@H](O)[C@H]3O)nn2)C(=O)O)CC1 [[^68Ga]Ga-NODAGA-TriGalactan, metal not drawn]
Result :: 0.87 ± 0.12 % ID/g

Origin of the recorded values: patent US20260151516A1
